Each recorded value in this set is attributed to patent US20260022114A1.

target: PolQ ATPase enzyme (1-894) (Homo sapiens (Human)); assay: Polθ ATPase enzymatic assay (0.5 nM enzyme concentration), ADP-Glo; assay type: biochemical; settings: 0.5 nM PolQ ATPase enzyme (1-894); average IC50
Sequence (O75417 1-894): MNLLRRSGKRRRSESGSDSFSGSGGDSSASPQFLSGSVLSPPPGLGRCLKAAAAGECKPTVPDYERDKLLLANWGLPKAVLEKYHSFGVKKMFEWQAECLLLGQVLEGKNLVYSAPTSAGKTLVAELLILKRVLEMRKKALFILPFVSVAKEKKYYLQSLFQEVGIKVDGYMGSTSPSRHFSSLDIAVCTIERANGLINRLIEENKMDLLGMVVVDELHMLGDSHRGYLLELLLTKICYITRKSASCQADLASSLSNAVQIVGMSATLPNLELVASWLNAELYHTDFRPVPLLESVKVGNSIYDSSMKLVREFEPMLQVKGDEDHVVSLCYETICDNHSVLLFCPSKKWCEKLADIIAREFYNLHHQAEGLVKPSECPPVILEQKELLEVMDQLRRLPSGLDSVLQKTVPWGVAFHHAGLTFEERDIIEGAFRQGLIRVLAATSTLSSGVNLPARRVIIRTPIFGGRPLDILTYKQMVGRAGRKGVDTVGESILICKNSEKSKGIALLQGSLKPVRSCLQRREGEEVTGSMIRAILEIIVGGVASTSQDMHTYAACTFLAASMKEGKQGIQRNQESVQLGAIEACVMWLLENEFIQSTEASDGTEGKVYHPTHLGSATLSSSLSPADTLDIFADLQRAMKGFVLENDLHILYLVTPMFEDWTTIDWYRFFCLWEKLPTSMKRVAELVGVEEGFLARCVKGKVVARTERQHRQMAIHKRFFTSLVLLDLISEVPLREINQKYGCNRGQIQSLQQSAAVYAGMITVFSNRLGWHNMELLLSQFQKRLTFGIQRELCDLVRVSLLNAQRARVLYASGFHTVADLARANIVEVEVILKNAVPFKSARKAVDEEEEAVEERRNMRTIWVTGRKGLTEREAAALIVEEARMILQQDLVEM
endpoint_name: IC50 (nM)

{"compound": "COc1cnc(C(F)F)cc1-c1cc(N(C)c2nnc(C)o2)ccc1C(=O)Nc1nnc(C#CC2CC2)s1", "endpoint_name": "IC50", "bound_operator": "=", "recorded_number": 0.99}
{"compound": "COc1cnc(C(F)F)cc1-c1cc(N2CCC3CCC3C2=O)ncc1C(=O)Nc1nnc(C#CC2CC2)s1 (racemic)", "endpoint_name": "IC50", "bound_operator": "<", "recorded_number": 0.25}
{"compound": "COc1cnc(C(F)F)cc1-c1cc(N2CCN(C3CC3)C3(CC3)C2=O)ncc1C(=O)Nc1nnc(C#CC2CC2)s1", "endpoint_name": "IC50", "bound_operator": "=", "recorded_number": 0.92}
{"compound": "C#C[C@H]1CC1c1nnc(NC(=O)c2cnc(N3CCN(C(=O)OC)C4(CC4)C3=O)cc2-c2cc(C(F)F)ncc2OC)s1 (single isomer, unassigned)", "endpoint_name": "IC50", "bound_operator": "=", "recorded_number": 0.33}
{"compound": "COc1cnc(C(F)F)cc1-c1cc(N2CC3CC(C3)C2=O)ncc1C(=O)Nc1nnc(C#CC2CC2)s1 (racemic)", "endpoint_name": "IC50", "bound_operator": "<", "recorded_number": 0.25}
{"compound": "COc1cnc(C(F)F)cc1-c1cc(-n2ccc(C(N)=O)cc2=O)ncc1C(=O)Nc1nnc(C#CC2CC2)s1", "endpoint_name": "IC50", "bound_operator": "<", "recorded_number": 0.25}
